Study System: Rap guanine nucleotide exchange factor 4 (Homo sapiens)
Assay Remarks: Confirmatory qHTS for antagonist of cAMP-regulated guanine nucleotide exchange factor 4 (EPAC2) (AID 1645885); further: nearly all actives have a fitted effect of over 25% in size
Condition Set: EPAC2 Rap1B-BODIPY-GDP exchange fluorescence, biochemical; series mostly up to 12.7 µM
Records with an inconclusive call do not appear. Activity calls are given as the source filed them. The call rests on the fitted dose curve; in most records, active means well fitted inhibition curve with a large enough effect; inconclusive means small, poorly fitted or top-dose-only effect; inactive means no such curve, though single readings can be large or run the other way.
Answer with one of the outcomes given here: active, inactive

// below: answered compounds
Compound	Assigned Class
O=C(O)CCCCCN1C(=O)/C(=C/c2cn(-c3ccccc3)nc2-c2cccs2)SC1=S	inactive
Cc1ccc2c(c1)C=CC(C#N)N2C(=O)c1ccccc1 (configuration not stated)	inactive

[Q] Called result for Cc1ccc(-c2csc(NS(=O)(=O)c3cccc(F)c3)n2)o1
[A] inactive

[Q] What would you report for CSCCC(C(=O)O)N1C(=O)c2ccc(C(=O)O)cc2C1=O (configuration not stated) ?
[A] inactive

[Q] Then this compound: CC(=O)c1c(C(C)=O)c(C)n(-c2nc(-c3ccccc3)c(C)s2)c1C
[A] inactive

[Q] And what about the compound Cn1c(=O)cc(N2CCN(C(=O)c3ccco3)CC2)[nH]c1=O ?
[A] inactive

[Q] What would you report for Cc1ccccc1OCCC(=O)OCC(=O)NC1CCCCC1 ?
[A] inactive

[Q] Similarly, Cc1ccc(C)c(S(=O)(=O)N2CCN(C(=O)CCCc3c[nH]c4ccccc34)CC2)c1 ?
[A] inactive

---

Study System: Rap guanine nucleotide exchange factor 3 (Homo sapiens) (UniProt O95398)
Sequence (O95398 whole entry, looked up): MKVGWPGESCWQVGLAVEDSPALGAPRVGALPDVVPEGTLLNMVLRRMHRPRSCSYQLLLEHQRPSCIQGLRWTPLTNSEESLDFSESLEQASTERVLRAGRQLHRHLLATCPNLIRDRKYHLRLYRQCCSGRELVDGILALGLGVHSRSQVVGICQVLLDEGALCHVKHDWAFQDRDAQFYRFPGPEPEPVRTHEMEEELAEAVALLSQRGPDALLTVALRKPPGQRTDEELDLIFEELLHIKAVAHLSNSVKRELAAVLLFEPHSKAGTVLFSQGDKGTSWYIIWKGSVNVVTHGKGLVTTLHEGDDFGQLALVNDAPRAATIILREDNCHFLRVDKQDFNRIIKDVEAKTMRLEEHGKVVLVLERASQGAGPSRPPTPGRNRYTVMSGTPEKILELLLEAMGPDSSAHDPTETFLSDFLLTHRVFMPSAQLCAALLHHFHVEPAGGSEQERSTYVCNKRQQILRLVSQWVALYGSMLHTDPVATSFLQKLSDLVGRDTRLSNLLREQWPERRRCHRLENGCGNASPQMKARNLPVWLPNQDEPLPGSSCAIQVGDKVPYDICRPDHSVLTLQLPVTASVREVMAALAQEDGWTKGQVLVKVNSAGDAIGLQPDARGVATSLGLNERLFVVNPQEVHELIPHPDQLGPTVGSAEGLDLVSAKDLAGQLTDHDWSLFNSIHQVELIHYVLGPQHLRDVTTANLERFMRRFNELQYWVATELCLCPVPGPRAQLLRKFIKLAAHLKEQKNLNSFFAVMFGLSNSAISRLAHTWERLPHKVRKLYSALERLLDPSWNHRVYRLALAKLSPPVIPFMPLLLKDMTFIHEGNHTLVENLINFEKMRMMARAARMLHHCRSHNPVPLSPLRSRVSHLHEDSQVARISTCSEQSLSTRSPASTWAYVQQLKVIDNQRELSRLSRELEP
Assay Remarks: Confirmatory qHTS for antagonist of cAMP-regulated guanine nucleotide exchange factor 3 (EPAC1) (AID 1645880); further: nearly all actives have a fitted effect of over 55% in size; further: potency means the concentration at half of the fitted maximal effect
Condition Set: EPAC1 Rap1B-BODIPY-GDP exchange, fluorescence; series mostly up to 115 µM
Records with an inconclusive call do not appear. Activity calls are given as the source filed them. Calls come from the whole dose curve; as a rule, active = well fitted inhibition curve with a large enough effect; inconclusive = small, poorly fitted or top-dose-only effect; inactive = no such curve, though single readings can be large or run the other way.
Reported Property: Potency

Examples from the recorded data:
Molecule	Potency
CC1=CC=CC2=NC(=O)CC(C)(C(=O)N(CC(=O)NC(C)C)C3CCCC3)N12 (stereo unspecified)	inactive
CCc1ccccc1NC(=O)CCC(=O)N1CCN(C(C)=O)CC1	inactive
COC(=O)c1scc(C#N)c1N/N=C(\C#N)S(=O)(=O)c1ccc(Cl)cc1	47.8 µM (active)
CCOc1ccc(S(=O)(=O)n2ccc(C)n2)c2ccccc12	inactive
Cc1ccc(-c2cc3ccccc3nc2N2CCOCC2)cc1	inactive
C/C(C/C(C)=C1/SC(=S)NC1=O)=C1\SC(=S)NC1=O	1.69 µM (active)
C#CCOc1ccc(/C=C2/C(=O)N(c3cccc(C(=O)O)c3)N=C2C)cc1OC	inactive
COC(=O)c1ccc2nc(-c3ccc(C)cc3)c(Cc3ccc(C)cc3)n2c1	inactive
CS(=O)(=O)c1ccc2c(c1)sc1nc(=O)c(/C=C3/C=CC(=O)C(O)=C3)c(N)n12	3.38 µM (active)
COC(=O)c1ccccc1NC1=C/C(=N\S(=O)(=O)c2ccc(C(=O)O)cc2)c2ccccc2C1=O	22.4 µM (active)

Parameter requested: Potency. Apply to each item below.
1. O=[N+]([O-])c1cc2ccccc2c(O)c1O
2. CN(c1ncnc2onc(-c3cccc(Cl)c3)c12)C1CCCCC1
3. Cc1ccc2c(c1)CCCN2C(=O)c1cc(C)c(C)s1
4. Cn1cc(CNCc2cn(C)nc2-c2ccc(C3CCCCC3)cc2)cn1
5. CCOC(=O)C1CCCN(c2cc(=O)n(C3CCCCC3)c(=O)[nH]2)C1 (stereo unspecified)
6. CCOc1ccc(/C(C)=N/NC(=O)C(OC)c2ccccc2)cc1 (stereo unspecified)

[A]
1: 31.6 µM (active); 2: inactive; 3: inactive; 4: inactive; 5: inactive; 6: inactive
